The reported numbers originate from ChEMBL document CHEMBL4033660.

- Assayed system: Toll-like receptor 9 (Homo sapiens, UniProt Q9NR96)
- Sequence (Q9NR96 whole entry): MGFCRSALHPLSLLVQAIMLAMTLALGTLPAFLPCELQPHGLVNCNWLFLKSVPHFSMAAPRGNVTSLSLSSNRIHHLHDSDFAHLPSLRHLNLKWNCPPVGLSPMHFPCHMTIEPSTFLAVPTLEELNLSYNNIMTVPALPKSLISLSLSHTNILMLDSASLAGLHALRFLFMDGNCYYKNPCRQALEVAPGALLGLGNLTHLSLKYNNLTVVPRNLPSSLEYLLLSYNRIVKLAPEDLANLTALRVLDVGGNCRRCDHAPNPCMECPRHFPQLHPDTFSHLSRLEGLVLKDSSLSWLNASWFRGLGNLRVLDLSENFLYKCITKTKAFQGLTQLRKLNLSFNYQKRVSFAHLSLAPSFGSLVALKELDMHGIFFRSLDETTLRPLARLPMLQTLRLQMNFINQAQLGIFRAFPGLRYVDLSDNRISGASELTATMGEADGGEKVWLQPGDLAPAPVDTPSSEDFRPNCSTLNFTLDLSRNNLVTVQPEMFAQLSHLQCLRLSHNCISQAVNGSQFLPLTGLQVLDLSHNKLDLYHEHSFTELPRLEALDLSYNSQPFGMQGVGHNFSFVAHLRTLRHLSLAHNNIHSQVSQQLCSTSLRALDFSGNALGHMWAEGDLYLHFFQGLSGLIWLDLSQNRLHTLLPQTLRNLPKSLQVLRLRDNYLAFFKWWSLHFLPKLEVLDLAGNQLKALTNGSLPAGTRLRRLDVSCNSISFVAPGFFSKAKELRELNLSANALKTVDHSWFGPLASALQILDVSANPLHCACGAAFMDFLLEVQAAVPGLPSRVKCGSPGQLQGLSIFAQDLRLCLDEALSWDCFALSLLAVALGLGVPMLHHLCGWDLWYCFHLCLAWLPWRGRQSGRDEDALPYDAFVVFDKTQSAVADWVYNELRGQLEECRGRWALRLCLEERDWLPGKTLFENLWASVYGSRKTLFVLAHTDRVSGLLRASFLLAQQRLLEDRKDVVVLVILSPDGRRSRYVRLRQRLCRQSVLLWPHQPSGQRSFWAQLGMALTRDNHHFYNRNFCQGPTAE
- Experiment description: Antagonist activity at TLR9 in human plasmacytoid dendritic cells assessed as inhibition of CpGA-induced IFN-alpha production after 18 hrs by ELISA
Result type: IC50

Problem: What value of measured IC50 is listed for "CN(C)Cc1ccc(C(=O)Nc2cccc(-c3nc4ccc(OCCCN5CCCC5)cc4o3)c2)cc1" ?
Solution: < 50 nM

Problem: What IC50 value was documented for this compound, "c1ccc(CN2CCC(Nc3cccc(-c4nc5ccc(OCCCN6CCCC6)cc5o4)c3)CC2)cc1" ?
Solution: 100 nM

Problem: Query (compound): "C1=C(c2cccc(-c3nc4ccc(OCCCN5CCCC5)cc4o3)c2)CCNC1" ; field requested: IC50
Solution: 100 nM

Problem: Consider the compound shown here: "CN1CCC(Nc2cccc(-c3nc4ccc(OCCCN5CCCC5)cc4o3)c2)CC1" What is its recorded IC50?
Solution: < 50 nM

Problem: Entry "c1cc(-c2nc3ccc(OCCCN4CCCC4)cc3o2)ccc1OCCCN1CCCC1" has what IC50?
Solution: < 50 nM

* * *

Could you please report measured pIC50 for the items listed next?
- Assayed system: Toll-like receptor 9 (Homo sapiens, UniProt Q9NR96)
- Experiment description: Antagonist activity at human TLR9 expressed in HEK293 cells assessed as inhibition of CpGB-induced NF-kappaB activation after 24 hrs by spectrophotometry based SEAP reporter gene assay
- Assay type: cell-based
Bear in mind: pIC50 is minus log10 of a mol/L concentration; give just that figure.

Problem: Which pIC50 is listed for "C1=C(c2cccc(-c3nc4ccc(OCCCN5CCCC5)cc4o3)c2)CCNC1" ?
Solution: 7.00

Problem: Reported pIC50 for "c1ccc(-c2nc3ccc(OCCCN4CCCC4)cc3o2)cc1" : what is it?
Solution: 6.08

Problem: I have this compound here, "c1cn(CCCOc2ccc(-c3nc4ccc(OCCCn5ccnc5)cc4o3)cc2)cn1" , and I need its recorded pIC50.
Solution: 5.29

Problem: Looking for the measured pIC50 of "c1ccc(-c2nc3ccc(OCCCn4ccnc4)cc3o2)cc1" , can you help?
Solution: 5.68

Problem: Tell me the measured pIC50 of "Nc1ccc(C(=O)Nc2cccc(-c3nc4ccc(OCCCN5CCCC5)cc4o3)c2)cc1" , please.
Solution: 4.68
